# target_of_assay: HLA-A*01:01
# assay_notes: IEDB peptide-MHC binding, purified MHC/competitive/radioactivity; bounds were set here for any values at or beyond the usual limits of such assays
# details: source organism: Homo sapiens
assay_endpoint: IC50 (nM)

Below: 2 sequences and their reported IC50.
1) DSDGSFFLY; 0.6
2) ATDFKFAMY; 0.74

A: YLDDPDLKY
B: STDHIPILY
Larger number for IC50: A , or B ? Write down the label attached to your selection.
A
(A: 2.8 nM, B: 1.7 nM)

###

# target_of_assay: HLA-A*11:01
# assay_notes: IEDB peptide-MHC binding, purified MHC/competitive/radioactivity; bounds were set here for any values at or beyond the usual limits of such assays
# details: source organism: Homo sapiens
assay_endpoint: IC50 (µM)

1. SVLNLVIVK; 0.00694

I: KVVNPLFEK
II: ASFDKAKLK
III: RTQNVLGEK
Ranking field: IC50; order: falling. Ranked list of labels, please, in the requested order.
III, II, I
(III: 0.031 µM, II: 0.0151 µM, I: 0.0081 µM)

The reported numbers originate from the Immune Epitope Database (IEDB).
